assay: NCI Yeast Anticancer Drug Screen. Data for the cln2 rad14 strain (AID 165);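 note: 0% = growth equal to vehicle treated cultures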; details: S. cerevisiae cln2 rad14 strain, stronger effect = higher value; at 50.0 µM unless noted
The panel holds about 79,000 compounds, 15% with a hit somewhere; the sample as a whole holds those more often.
// values below are reported growth inhibition
Measured Attribute: growth inhibition (%)

> print(dat)
                                    molecule  data.value
 1  CN(C)CC(O)(C(=O)c1ccccc1)c1ccccc1 (configuration not stated)       -25.2
 2  CN(O)C(=O)CCC(NC(=O)CCC(N)C(=O)O)C(=O)NCC(=O)O (configuration not stated)         0.1
 3  O=C(N=C(Oc1ccccc1)Oc1ccccc1)N=C(Oc1ccccc1)Oc1ccccc1        20.3
 4  O=C1c2ccccc2C(=O)N1/N=[N+](\[O-])c1ccccc1         7.3
 5  O=C1/C(=C/c2ccccc2)CCC2CCCCC12 (configuration not stated)       -24.9
 6                                 OCCCCCCCl       -6.65
 7                      C1CCN(CCC2CCNCC2)CC1         1.8
 8  CC1=C2CC(C)(C)/C=C\C(=O)/C(C)=C\C3=C[C@H](C)C[C@]3(O2)C1=O        40.4
 9  CCC1=CCN(c2ccccn2)OC1c1ccc(OC)cc1 (configuration not stated)        22.3
10  C/C(=N\NC(=S)N1CCN(c2ccccn2)CC1)c1cccc(C)n1        91.3
11                          COC(=O)CCc1ccco1         2.5
12             C[N+]1(CCN=C=NC2CCCCC2)CCOCC1       -12.2
